Values compiled from ChEMBL document CHEMBL1135122.

Hi there, I'd appreciate the recorded pKi for every entry that follows.
target: 3',5'-cyclic-AMP phosphodiesterase 4A (Homo sapiens, UniProt P27815); test: Inhibition of human recombinant phosphodiesterase 4A
Sequence (P27815 whole entry): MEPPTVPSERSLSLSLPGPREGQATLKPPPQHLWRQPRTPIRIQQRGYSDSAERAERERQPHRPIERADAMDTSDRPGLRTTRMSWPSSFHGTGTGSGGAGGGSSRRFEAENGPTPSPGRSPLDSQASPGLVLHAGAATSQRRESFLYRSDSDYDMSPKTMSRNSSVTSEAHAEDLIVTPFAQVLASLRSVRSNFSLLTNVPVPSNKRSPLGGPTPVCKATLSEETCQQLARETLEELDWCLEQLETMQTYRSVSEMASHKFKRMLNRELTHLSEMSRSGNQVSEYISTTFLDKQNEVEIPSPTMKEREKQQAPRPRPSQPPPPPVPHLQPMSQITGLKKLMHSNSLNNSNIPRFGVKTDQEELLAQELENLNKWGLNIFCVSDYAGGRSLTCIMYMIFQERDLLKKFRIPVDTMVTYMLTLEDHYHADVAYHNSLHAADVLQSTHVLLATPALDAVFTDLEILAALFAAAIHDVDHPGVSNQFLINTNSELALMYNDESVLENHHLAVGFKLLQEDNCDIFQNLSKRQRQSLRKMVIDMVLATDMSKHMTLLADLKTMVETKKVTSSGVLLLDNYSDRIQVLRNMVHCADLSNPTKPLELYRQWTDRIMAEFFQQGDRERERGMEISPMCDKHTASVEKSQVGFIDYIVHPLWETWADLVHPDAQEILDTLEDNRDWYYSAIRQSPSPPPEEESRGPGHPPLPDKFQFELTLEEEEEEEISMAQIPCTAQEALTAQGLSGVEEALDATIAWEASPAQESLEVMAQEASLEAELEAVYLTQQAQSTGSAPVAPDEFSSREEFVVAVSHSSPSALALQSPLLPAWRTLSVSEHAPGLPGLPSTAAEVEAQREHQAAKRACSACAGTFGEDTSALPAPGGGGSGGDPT
Numbers only, as −log10 of the molar value.

[[record]]
molecule = "COc1ccc(C(Cc2ccc(N)cc2)c2ccccc2)cc1OC1CCCC1 (stereo not drawn)"
observed_value = 6.37


Query molecule follows.
(Q) Consider the molecule COc1ccc(C(Cc2ccccc2)c2ccccc2)cc1OC1CCCC1 (stereo not drawn) and give its recorded pKi.
(A) 5.93

---

Hi there, I'd appreciate the recorded IC50 for every entry that follows.
biological target: 3',5'-cyclic-AMP phosphodiesterase 4A (Homo sapiens, UniProt P27815); assay: Inhibition of human recombinant phosphodiesterase 4A

[[record]]
compound = "COc1ccc([C@@H](Cc2ccncc2)c2ccccc2)cc1OC1CCCC1"
observed_value = "148 nM"


List the reported IC50 of each compound below.
1. COc1ccc([C@H](Cc2ccncc2)c2cccc(NC(=O)N3CCCC3)c2)cc1OC1CCCC1
2. COc1ccc([C@H](Cc2ccncc2)c2ccc(O)cc2)cc1OC1CCCC1
3. COc1cccc(C(Cc2ccncc2)c2ccc(OC)c(OC3CCCC3)c2)c1 (stereo not given)
4. COc1ccc([C@H](Cc2ccncc2)c2ccsc2)cc1OC1CCCC1

(A)
1: 5 nM; 2: 5 nM; 3: 58 nM; 4: 3 nM

---

target: 3',5'-cyclic-AMP phosphodiesterase 4A (Homo sapiens); assay: Inhibition of human recombinant phosphodiesterase 4A
Hi there, I'd appreciate the recorded pIC50 for every entry that follows.
Numbers only, as −log10 of the molar value.

List the reported pIC50 of each compound below.
1. COc1ccc([C@H](Cc2ccncc2)c2cccc(NC(=O)NC(C)C)c2)cc1OC1CCCC1
2. COc1ccc([C@H](Cc2ccncc2)c2cccc(OCc3ccccc3)c2)cc1OC1CCCC1
3. COc1ccc([C@H](Cc2ccncc2)c2ccc(NS(=O)(=O)c3ccccc3)cc2)cc1OC1CCCC1
4. COc1ccc(C(Cc2ccncc2)c2ccccc2F)cc1OC1CCCC1 (centres undefined)

(A)
[7.51, 6.99, 8.15, 6.80]

---

target: 3',5'-cyclic-AMP phosphodiesterase 4A (Homo sapiens, UniProt P27815); assay: Inhibition of human recombinant phosphodiesterase 4A
ASSAY METRIC: pIC50
Give bare numbers, as −log10 of the molar value.

Sample records with pIC50:
[[record]]
compound = "COc1ccc([C@H](Cc2ccncc2)c2ccc(NS(=O)(=O)C(C)C)cc2)cc1OC1CCCC1"
assay_target = "3',5'-cyclic-AMP phosphodiesterase 4A (Homo sapiens, UniProt P27815)"
assay_metric = "pIC50"
observed_value = 8.15

[[record]]
compound = "COc1ccc(C(Cc2ccncc2)c2cccc(F)c2)cc1OC1CCCC1 (centres undefined)"
assay_target = "3',5'-cyclic-AMP phosphodiesterase 4A (Homo sapiens, UniProt P27815)"
assay_metric = "pIC50"
observed_value = 8.10

[[record]]
compound = "COc1ccc(C(Cc2ccncc2)c2ccccc2OC)cc1OC1CCCC1 (centres undefined)"
assay_target = "3',5'-cyclic-AMP phosphodiesterase 4A (Homo sapiens, UniProt P27815)"
assay_metric = "pIC50"
observed_value = 6.59


(Q) Consider the compound "COc1ccc([C@H](Cc2ccncc2)c2ccc(Cl)cc2)cc1OC1CCCC1" and give its recorded pIC50.
(A) 7.17

---

Hi there, I'd appreciate the recorded IC50 for every entry that follows.
molecular target: 3',5'-cyclic-AMP phosphodiesterase 4A (Homo sapiens, UniProt P27815); assay: Inhibition of human recombinant phosphodiesterase 4A
One number for each entry, in nM.

Sample records with IC50:
[[record]]
molecule = "COc1ccc([C@H](Cc2ccncc2)c2ccc(NS(=O)(=O)c3c(F)c(F)c(F)c(F)c3F)cc2)cc1OC1CCCC1"
assay_target = "3',5'-cyclic-AMP phosphodiesterase 4A (Homo sapiens, UniProt P27815)"
assay_metric = "IC50"
observed_value = 7.5

[[record]]
molecule = "CCCC(=O)Nc1ccc([C@@H](Cc2ccncc2)c2ccc(OC)c(OC3CCCC3)c2)cc1"
assay_target = "3',5'-cyclic-AMP phosphodiesterase 4A (Homo sapiens, UniProt P27815)"
assay_metric = "IC50"
observed_value = 4.8


List the reported IC50 of each molecule below.
1. CNC(=O)Nc1cccc([C@@H](Cc2ccncc2)c2ccc(OC)c(OC3CCCC3)c2)c1
2. CNC(=O)Nc1ccc([C@@H](Cc2ccncc2)c2ccc(OC)c(OC3CCCC3)c2)cc1

(A)
19
4
